study_target: BRD4 (Homo sapiens, UniProt O60885)
assay_protocol: Time resolved fluorescence resonance energy transfer (TR-FRET) binding assay, bromodomain BRD4
measurement_setup: one of the FRET assays described; read-out: FRET BRD4 IC50
assay_endpoint: IC50

GET /values?readout=IC50&item= Cc1nnn(C)c1-c1ccc2c3ncc(N4CCS(=O)(=O)CC4)cc3n([C@H](c3ccccc3)C3CCOCC3)c2n1
< 10 nM

Same lookup for Cc1nnn(C)c1-c1cnc2c3ccc(NC(=O)C(C)(C)C)nc3n([C@H](c3ccccc3)C3CCOCC3)c2c1 , please.
< 10 nM

// repeat for Cc1nnn(C)c1-c1cnc2c3ccc(S(C)(=O)=O)nc3n([C@H](c3ccccc3)C3CCOCC3)c2c1 and report
< 10 nM

Please give the result for [2H]C([2H])([2H])c1nnn(C)c1-c1cnc2c3c(OC(C)C)ncc(S(C)(=O)=O)c3n([C@H](c3ccc(F)cc3)C3CCOCC3)c2c1 too.
< 1 nM

Next record, please: [2H]C([2H])([2H])c1nnn(C)c1-c1cnc2c3c(OC)nc(S(C)(=O)=O)cc3n([C@H](c3ccccc3)C3CCOCC3)c2c1
< 10 nM

Same thing, different compound: [2H]C([2H])([2H])c1nnn(C)c1-c1cnc2c3ccc(NCCc4nnn[nH]4)nc3n([C@H](c3ccccc3)C3CCOCC3)c2c1
< 1 nM

The measured values listed here are drawn from patent US9725449B2.
